FYI, the data here is from patent US20230265208A1.

tested_on: MUC1 on HCT116/MUC1 cells (human, UniProt P15941 24-1255)
Sequence (P15941 24-1097, chain 1 of 2): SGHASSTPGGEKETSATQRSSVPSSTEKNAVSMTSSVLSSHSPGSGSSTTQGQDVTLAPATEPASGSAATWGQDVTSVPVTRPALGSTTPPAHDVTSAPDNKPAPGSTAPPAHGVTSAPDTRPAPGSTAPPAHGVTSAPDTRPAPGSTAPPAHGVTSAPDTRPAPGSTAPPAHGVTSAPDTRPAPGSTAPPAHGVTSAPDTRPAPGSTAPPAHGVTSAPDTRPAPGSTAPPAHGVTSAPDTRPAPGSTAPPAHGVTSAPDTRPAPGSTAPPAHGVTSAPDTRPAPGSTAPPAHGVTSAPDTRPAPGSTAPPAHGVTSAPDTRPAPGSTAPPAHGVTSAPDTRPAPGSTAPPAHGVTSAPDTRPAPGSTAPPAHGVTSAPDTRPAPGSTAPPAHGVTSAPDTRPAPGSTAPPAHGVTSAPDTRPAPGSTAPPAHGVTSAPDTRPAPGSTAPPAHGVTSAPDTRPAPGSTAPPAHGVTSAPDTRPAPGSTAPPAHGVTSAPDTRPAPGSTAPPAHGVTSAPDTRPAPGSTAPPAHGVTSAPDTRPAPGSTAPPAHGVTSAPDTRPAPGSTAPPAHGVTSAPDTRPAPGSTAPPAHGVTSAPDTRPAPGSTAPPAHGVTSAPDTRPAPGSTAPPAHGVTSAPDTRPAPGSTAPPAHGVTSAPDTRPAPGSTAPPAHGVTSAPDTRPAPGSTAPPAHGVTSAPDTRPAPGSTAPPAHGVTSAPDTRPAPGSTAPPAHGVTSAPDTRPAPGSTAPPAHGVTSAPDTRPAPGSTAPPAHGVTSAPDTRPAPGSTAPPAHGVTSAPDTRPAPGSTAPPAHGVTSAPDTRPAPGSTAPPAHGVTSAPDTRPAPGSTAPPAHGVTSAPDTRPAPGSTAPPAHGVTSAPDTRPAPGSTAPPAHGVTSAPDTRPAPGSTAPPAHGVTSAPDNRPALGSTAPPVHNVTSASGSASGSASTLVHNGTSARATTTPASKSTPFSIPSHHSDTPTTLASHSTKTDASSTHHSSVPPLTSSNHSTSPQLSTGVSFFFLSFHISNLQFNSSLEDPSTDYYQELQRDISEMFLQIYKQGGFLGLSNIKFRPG
Sequence (P15941 1098-1255, chain 2 of 2): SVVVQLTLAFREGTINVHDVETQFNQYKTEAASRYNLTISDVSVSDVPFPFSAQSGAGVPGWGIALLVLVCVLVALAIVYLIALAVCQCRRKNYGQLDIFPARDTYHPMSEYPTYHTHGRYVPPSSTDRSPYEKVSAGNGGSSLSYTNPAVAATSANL
test_protocol: flow cytometry on HCT116/MUC1 cells; antibody at 100 nM
result_type: FACS titration signal
# print the numeric value only

VH5 + VL2 (antibody, V domains shown) VH: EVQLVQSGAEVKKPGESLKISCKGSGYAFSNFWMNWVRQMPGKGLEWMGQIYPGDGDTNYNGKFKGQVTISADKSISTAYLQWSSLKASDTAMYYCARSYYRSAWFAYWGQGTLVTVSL VL: EIVMTQSPATLSVSPGERATLSCRASQSIGTSIHWYQQKPGQAPRLLIYYASESISGIPARFSGSGSGTEFTLTISSLQSEDFAVYYCQQSNNWPLTFGGGTKVEIK : 48.9

Exam item: Bench note: what FACS titration signal did VH1 + VL3 (antibody, V domains shown) VH: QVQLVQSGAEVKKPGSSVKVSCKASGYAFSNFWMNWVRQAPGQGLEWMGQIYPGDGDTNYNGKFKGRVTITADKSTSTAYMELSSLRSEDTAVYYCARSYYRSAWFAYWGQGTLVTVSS VL: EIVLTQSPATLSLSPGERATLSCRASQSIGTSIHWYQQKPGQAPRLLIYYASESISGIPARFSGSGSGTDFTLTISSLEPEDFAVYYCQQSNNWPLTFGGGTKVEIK show?
Marked response: 41.7

Exam item: Bench note: what FACS titration signal did VH2 + VL3 (antibody, V domains shown) VH: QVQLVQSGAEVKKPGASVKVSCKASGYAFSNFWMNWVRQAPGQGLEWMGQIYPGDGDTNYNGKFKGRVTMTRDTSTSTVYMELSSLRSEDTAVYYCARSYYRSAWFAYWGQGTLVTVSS VL: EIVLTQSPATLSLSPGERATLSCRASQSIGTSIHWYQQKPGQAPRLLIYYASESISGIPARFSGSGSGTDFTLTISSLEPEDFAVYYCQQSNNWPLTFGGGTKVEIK show?
Marked response: 43.8

Exam item: Bench note: what FACS titration signal did VH1 + VL4 (antibody, V domains shown) VH: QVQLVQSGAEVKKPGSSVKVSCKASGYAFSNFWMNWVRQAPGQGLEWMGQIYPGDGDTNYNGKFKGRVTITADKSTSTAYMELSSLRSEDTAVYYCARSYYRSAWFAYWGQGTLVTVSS VL: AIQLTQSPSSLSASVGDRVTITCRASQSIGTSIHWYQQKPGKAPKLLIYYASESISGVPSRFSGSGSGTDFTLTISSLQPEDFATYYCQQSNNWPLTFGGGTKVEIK show?
Marked response: 56.2
